Tested on: L1210 leukemia ip in BDF1 mice, survival T/C
Assay: NCI In Vivo Anticancer Drug Screen. Data for tumor model L1210 Leukemia (intraperitoneal) in B6D2F1 (BDF1) mice
Conditions: endpoint: mean survival time; dose: 400.0 mg/kg/injection; schedule: Q01DX001 (ip); vehicle: saline; higher = longer survival
Inconclusive results and toxic doses are left out.
measured_quantity: T/C

// below: answered compounds
compound	system_tested	result
CC1CCCCN1C(CC(=O)c1ccccc1)C(=O)c1ccccc1 (centres undefined)	L1210 leukemia ip in BDF1 mice, survival T/C	101 % of control
CCCCCCCC1CCCCC1	L1210 leukemia ip in BDF1 mice, survival T/C	98 % of control
CN(C(=O)OCc1ccccc1)c1ccc(C(=O)O)cc1	L1210 leukemia ip in BDF1 mice, survival T/C	97 % of control
Nc1nc(N)c(N=O)c(=O)[nH]1	L1210 leukemia ip in BDF1 mice, survival T/C	94 % of control
c1ccc(C[Si](Cc2ccccc2)Cc2ccccc2)cc1	L1210 leukemia ip in BDF1 mice, survival T/C	104 % of control

# get_value(readout= T/C, system= L1210 leukemia ip in BDF1 mice, survival T/C) for `N#CCCOCC(COCCC#N)OCCC#N`
92 % of control

Please state recorded T/C (tested on L1210 leukemia ip in BDF1 mice, survival T/C) of COc1ccc(C(C#N)C(O)(c2ccccc2)c2ccccc2)cc1 (centres undefined)
93 % of control

What measured T/C is associated with O=S(=O)(c1ccccc1)C1CN=NC1c1ccccc1 (centres undefined) on L1210 leukemia ip in BDF1 mice, survival T/C?
96 % of control

Provide value of T/C for this record tested with L1210 leukemia ip in BDF1 mice, survival T/C: `Cn1cnc2[nH]c(Cl)nc(=S)c21`
95 % of control

Given the entry COC1OCC(O)C(O)C1OS(C)(=O)=O (centres undefined) , what T/C was observed with L1210 leukemia ip in BDF1 mice, survival T/C?
104 % of control

So what T/C did `Nc1ccc(S(=O)(=O)NS(=O)(=O)c2ccccc2)cc1` get with L1210 leukemia ip in BDF1 mice, survival T/C?
101 % of control

Can you look up T/C on L1210 leukemia ip in BDF1 mice, survival T/C for `CN(C)S(=O)(=O)c1ccc(CCc2ccc(S(=O)(=O)N(C)C)cc2)cc1` ?
96 % of control

So what T/C did C=CC1CN2CCC1CC2C(=O)c1ccnc2ccccc12 (centres undefined) get with L1210 leukemia ip in BDF1 mice, survival T/C?
98 % of control

Hi! What's the reported T/C for `Cc1[nH]c(=O)[nH]c(=O)c1CCO` on L1210 leukemia ip in BDF1 mice, survival T/C?
100 % of control

Give T/C (L1210 leukemia ip in BDF1 mice, survival T/C) of the following compound: `CC(=O)Nc1ccc(N=C/C=C/c2ccccc2)cc1`
98 % of control

Give L1210 leukemia ip in BDF1 mice, survival T/C T/C for `Nc1nc2ncnc(N)c2nc1-c1ccc(N(CCO)CCO)cc1`
100 % of control

Form field - read-out: T/C; system: L1210 leukemia ip in BDF1 mice, survival T/C; submitted item: COc1ccc(C2ON2C2CCCCC2)cc1OC (centres undefined)
100 % of control

Short answer please: T/C, L1210 leukemia ip in BDF1 mice, survival T/C, entry `[Cl][Tl]`
94 % of control

Item: `Cn1ncc2[nH]c(=O)n(OS(=O)(=O)c3ccccc3)c(=O)c21` Test system: L1210 leukemia ip in BDF1 mice, survival T/C Read-out: T/C Value: ?
87 % of control

For the record COc1cc(CC(=O)C2CN(C(=O)Cc3cc(Cl)c(OC)c(OC)c3)c3ccc(Br)cc32)cc(Cl)c1OC (centres undefined) , what value of T/C is listed for L1210 leukemia ip in BDF1 mice, survival T/C?
93 % of control

What value of T/C on L1210 leukemia ip in BDF1 mice, survival T/C does O=S(=O)(CC12CC1(O)C1CCC2C1)c1ccccc1 (centres undefined) have?
107 % of control

# query: T/C | item CCCCSC(=O)C(O)c1ccccc1 (centres undefined) | system: L1210 leukemia ip in BDF1 mice, survival T/C
105 % of control

Kindly state the measured T/C obtained for `O=[N+]([O-])c1cc(Cl)ccc1S(=O)(=O)/C=C/c1ccccc1` with L1210 leukemia ip in BDF1 mice, survival T/C.
100 % of control

Could you share what T/C was measured for `NC(=O)NCCO` , tested on L1210 leukemia ip in BDF1 mice, survival T/C?
98 % of control
